target: MET (wt) GST-tagged recombinant human MET kinase domain (Homo sapiens); construct: GST-tagged recombinant human MET kinase domain; assay: c-Met Enzyme Assay, wild type (LanthaScreen Eu Kinase Binding); details: averaged IC50; MET (wt) 10 nM; 60-minute incubation at 22° C.; read-out: SigChem WT IC50
Sequence (P08581 1078-1345 limits assumed): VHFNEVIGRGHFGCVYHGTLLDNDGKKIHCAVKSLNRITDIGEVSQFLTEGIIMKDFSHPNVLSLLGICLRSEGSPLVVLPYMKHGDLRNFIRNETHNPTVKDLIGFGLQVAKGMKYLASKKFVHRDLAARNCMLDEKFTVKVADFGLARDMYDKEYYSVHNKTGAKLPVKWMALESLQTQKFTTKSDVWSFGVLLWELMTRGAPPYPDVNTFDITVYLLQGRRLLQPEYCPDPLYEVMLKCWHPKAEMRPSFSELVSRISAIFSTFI
Field 'label' (enum: yes / no). Set to yes when IC50 is strictly under 4 nM; else no.

{"Sample Smiles": "COc1cc2nccc(Oc3ccc(NC(=O)c4cn(CCC(C)C)cc(-c5ccc(F)c(F)c5)c4=O)nc3)c2cc1OC", "Assigned Label": "no"}
{"Sample Smiles": "COc1cc2nccc(Oc3ccc(NC(=O)c4cn(CC(C)(C)O)cc(-c5ccc(F)cc5)c4=O)nc3)c2cc1OC", "Assigned Label": "yes"}
{"Sample Smiles": "COc1cc2c(Oc3ccc(NC(=O)c4cn(C(C)C)cc(-c5ccc(F)cc5)c4=O)nc3)ccnc2cc1F", "Assigned Label": "no"}
{"Sample Smiles": "COc1ccc2nccc(Oc3ccc(NC(=O)c4cn(CCN(C)C)cc(-c5ccc(F)cc5)c4=O)nc3)c2c1", "Assigned Label": "no"}
{"Sample Smiles": "COc1cc2ncc(C#N)c(Oc3ccc(NC(=O)c4cn(C(C)C)cc(-c5ccc(F)cc5)c4=O)nc3)c2cc1OC", "Assigned Label": "no"}
{"Sample Smiles": "CCCC(CCC)n1cc(C(=O)Nc2ccc(Oc3ccnc4cc(OC)c(OC)cc34)cn2)c(=O)c(-c2ccc(F)cc2F)c1", "Assigned Label": "no"}
{"Sample Smiles": "COc1cc2nccc(Oc3ccc(NC(=O)c4cn(C(C)C)cc(-c5ccc(F)cc5Cl)c4=O)nc3)c2cc1OC", "Assigned Label": "yes"}
{"Sample Smiles": "COc1cc2nccc(Oc3ccc(NC(=O)c4cn(C(C)C)c(C)c(-c5ccc(F)c(F)c5)c4=O)nc3)c2cc1OC", "Assigned Label": "yes"}
{"Sample Smiles": "COc1cc2nccc(Oc3ccc(NC(=O)c4cn(C)c(C(C)C)c(-c5ccc(F)cc5)c4=O)nc3)c2cc1OC", "Assigned Label": "no"}
{"Sample Smiles": "COc1cc2nccc(Oc3ccc(NC(=O)c4cn(CCN(C)C)cc(-c5ccc(F)c(F)c5)c4=O)nc3)c2cc1OC", "Assigned Label": "yes"}
{"Sample Smiles": "COc1cc2nccc(Oc3ccc(NC(=O)c4cn(C(C)C)cc(-c5ccc(F)c(F)c5)c4=O)nc3)c2cc1OC", "Assigned Label": "no"}
{"Sample Smiles": "COc1cc(-c2cn(C(C)C)cc(C(=O)Nc3ccc(Oc4ccnc5cc(OC)c(OC)cc45)cn3)c2=O)ccc1F", "Assigned Label": "no"}
{"Sample Smiles": "COCCn1cc(C(=O)Nc2ccc(Oc3ccnc4cc(OC)c(OC)cc34)cn2)c(=O)c(-c2ccc(F)cc2)c1", "Assigned Label": "yes"}
{"Sample Smiles": "COc1cc2nccc(Oc3ccc(NC(=O)c4cn(CC(C)C)cc(-c5ccc(F)cc5)c4=O)nc3)c2cc1OC", "Assigned Label": "no"}
{"Sample Smiles": "COc1cc2nccc(Oc3ccc(NC(=O)c4cn(CCN(C)C)cc(-c5ccc(F)cc5F)c4=O)nc3)c2cc1OC", "Assigned Label": "yes"}
{"Sample Smiles": "CCn1cc(C(=O)Nc2ccc(Oc3ccnc4ccc(OC)cc34)cn2)c(=O)c(-c2ccc(F)cc2)c1", "Assigned Label": "no"}
{"Sample Smiles": "CCOc1ccc2c(Oc3ccc(NC(=O)c4cn(C(C)C)cc(-c5ccc(F)cc5)c4=O)nc3)ccnc2c1", "Assigned Label": "no"}
{"Sample Smiles": "COc1cc2nccc(Oc3ccc(NC(=O)c4cn(CC(=O)N(C)C)cc(-c5ccc(F)c(F)c5)c4=O)nc3)c2cc1OC", "Assigned Label": "no"}
{"Sample Smiles": "COc1ccc(-c2cn(C(C)C)cc(C(=O)Nc3ccc(Oc4ccnc5cc(OC)c(OC)cc45)cn3)c2=O)cc1", "Assigned Label": "no"}
{"Sample Smiles": "COc1ccc(-c2cn(C(C)C)cc(C(=O)Nc3ccc(Oc4ccnc5cc(OC)c(OC)cc45)cn3)c2=O)c(F)c1", "Assigned Label": "no"}
{"Sample Smiles": "CCOc1ccc2nccc(Oc3ccc(NC(=O)c4cn(C(C)C)cc(-c5ccc(F)cc5)c4=O)nc3)c2c1", "Assigned Label": "no"}
{"Sample Smiles": "COc1cc2nccc(Oc3ccc(NC(=O)c4cn(CC(=O)N(C)C)cc(-c5ccc(F)cc5)c4=O)nc3)c2cc1OC", "Assigned Label": "yes"}
{"Sample Smiles": "COc1cc2c(Oc3ccc(NC(=O)c4cn(C(C)C)c(C)c(-c5ccc(F)cc5)c4=O)nc3)ccnc2cc1F", "Assigned Label": "no"}
{"Sample Smiles": "CCCn1cc(C(=O)Nc2ccc(Oc3ccnc4cc(OC)c(OC)cc34)cn2)c(=O)c(-c2ccc(F)cc2)c1", "Assigned Label": "yes"}
{"Sample Smiles": "COc1cc2nccc(Oc3cnc(NC(=O)c4cn(C(C)C)c(C)c(-c5ccc(F)cc5)c4=O)nc3)c2cc1OC", "Assigned Label": "yes"}
{"Sample Smiles": "COc1cc2nccc(Oc3ccc(NC(=O)c4cn(CC(=O)N5CCOCC5)cc(-c5ccc(F)cc5F)c4=O)nc3)c2cc1OC", "Assigned Label": "no"}

---

pIC50 values for the compounds below.
molecular target: human MET kinase L1195V (Homo sapiens, UniProt P08581, L1195V); construct: GST-tagged recombinant human MET kinase domain; test: c-Met Enzyme Assay, L1195V mutant; settings: averaged IC50; L1195V 10 nM; 60-minute incubation at 22° C.
Sequence (P08581 1078-1345 L1195V limits assumed): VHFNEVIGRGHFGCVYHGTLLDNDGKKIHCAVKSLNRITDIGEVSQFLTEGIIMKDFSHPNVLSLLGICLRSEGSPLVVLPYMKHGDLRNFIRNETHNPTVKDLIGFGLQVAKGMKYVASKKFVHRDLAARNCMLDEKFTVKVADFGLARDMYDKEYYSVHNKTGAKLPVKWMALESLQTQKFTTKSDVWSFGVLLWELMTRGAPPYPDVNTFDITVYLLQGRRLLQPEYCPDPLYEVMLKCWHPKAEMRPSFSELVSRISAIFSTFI
pIC50: −log10 of the molar value.

{"Compound": "COc1cc2nccc(Oc3cnc(NC(=O)c4cn(C(C)C)c(C)c(-c5ccc(F)cc5)c4=O)nc3)c2cc1OC [Example 55]", "pIC50": 8.29}
{"Compound": "COCCn1cc(C(=O)Nc2ccc(Oc3ccnc4cc(OC)c(OC)cc34)cn2)c(=O)c(-c2ccc(F)cc2)c1 [Example 7]", "pIC50": 8.14}
{"Compound": "COc1cc2nccc(Oc3ccc(NC(=O)c4cn(C)c(C(C)C)c(-c5ccc(F)cc5)c4=O)nc3)c2cc1OC [Example 45]", "pIC50": 7.38}
{"Compound": "COc1cc2nccc(Oc3ccc(NC(=O)c4cn(CC(C)(C)O)cc(-c5ccc(F)cc5)c4=O)nc3)c2cc1OC [Example 9]", "pIC50": 7.32}
{"Compound": "CCOc1ccc2nccc(Oc3ccc(NC(=O)c4cn(C(C)C)cc(-c5ccc(F)cc5)c4=O)nc3)c2c1 [Example 51]", "pIC50": 6.31}
{"Compound": "COc1cc2nccc(Oc3ccc(NC(=O)c4cn(C(C)C)cc(-c5ccc(F)cc5)c4=O)cn3)c2cc1OC [Example 58]", "pIC50": 7.46}
{"Compound": "COc1cc2nccc(Oc3ccc(NC(=O)c4cn(C(C)C)cc(-c5ccc(F)c(Cl)c5)c4=O)nc3)c2cc1OC [Example 21]", "pIC50": 7.11}

---

pIC50 values for the compounds below.
Molecular target: His-tagged recombinant human MER cytoplasmic domain (Homo sapiens, UniProt Q12866)
Construct: His-tagged recombinant human MER cytoplasmic domain
Sequence (Q12866 527-999 limits assumed): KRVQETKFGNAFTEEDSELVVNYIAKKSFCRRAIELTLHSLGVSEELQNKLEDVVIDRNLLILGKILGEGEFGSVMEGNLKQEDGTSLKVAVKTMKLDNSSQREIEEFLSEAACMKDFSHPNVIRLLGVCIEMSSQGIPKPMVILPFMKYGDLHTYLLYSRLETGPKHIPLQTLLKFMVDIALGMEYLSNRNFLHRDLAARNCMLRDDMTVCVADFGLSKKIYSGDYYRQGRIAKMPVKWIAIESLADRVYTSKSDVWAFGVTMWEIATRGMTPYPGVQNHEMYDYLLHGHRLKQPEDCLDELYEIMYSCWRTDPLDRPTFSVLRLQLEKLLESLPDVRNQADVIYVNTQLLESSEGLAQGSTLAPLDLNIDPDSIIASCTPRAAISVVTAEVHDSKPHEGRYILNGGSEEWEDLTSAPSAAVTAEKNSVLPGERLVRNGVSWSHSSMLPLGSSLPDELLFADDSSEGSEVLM
Experiment: MER Enzyme Assay (LanthaScreen Eu Kinase Binding)
Details: averaged IC50; MER 5 nM; 60-minute incubation at 22° C.; TR-FRET
Method: Compounds disclosed herein were screened for their ability to inhibit AXL kinase using Invitrogen's LanthaScreen™Eu Kinase Binding technology. […] After a 60-minute incubation at 22° C., the reaction was measured using a PerkinElmer EnVision multimode plate reader via TR-FRET dual wavelength detection, and the percent of control (POC) was calculated using a ratiometric emission factor. […]
pIC50: −log10 of the molar value.

{"Compound": "COCCn1cc(C(=O)Nc2ccc(Oc3ccnc4cc(OC)c(OC)cc34)cn2)c(=O)c(-c2ccc(F)cc2)c1 [Example 7]", "pIC50": 8.52}
{"Compound": "COc1cc2nccc(Oc3ccc(NC(=O)c4cn(CC(=O)N(C)C)cc(-c5ccc(F)c(F)c5)c4=O)nc3)c2cc1OC [Example 24]", "pIC50": 8.30}
{"Compound": "COc1cc2nccc(Oc3ccc(NC(=O)c4cn(C(C)C)cc(-c5ccc(F)cc5Cl)c4=O)nc3)c2cc1OC [Example 18]", "pIC50": 8.70}
{"Compound": "CCn1cc(C(=O)Nc2ccc(Oc3ccnc4cc(OC)c(OC)cc34)cn2)c(=O)c(-c2ccc(F)cc2)c1 [Example 3]", "pIC50": 8.52}
{"Compound": "COc1cc2nccc(Oc3ccc(NC(=O)c4cn(C(C)C)cc(-c5ccc(Cl)cc5)c4=O)nc3)c2cc1OC [Example 5]", "pIC50": 8.40}
{"Compound": "CCCC(CCC)n1cc(C(=O)Nc2ccc(Oc3ccnc4cc(OC)c(OC)cc34)cn2)c(=O)c(-c2ccc(F)cc2F)c1 [Example 17]", "pIC50": 7.28}
{"Compound": "COc1cc2nccc(Oc3ccc(NC(=O)c4cn(C)c(C(C)C)c(-c5ccc(F)cc5)c4=O)nc3)c2cc1OC [Example 45]", "pIC50": 7.57}
{"Compound": "COc1cc2c(Oc3ccc(NC(=O)c4cn(C(C)C)cc(-c5ccc(F)cc5)c4=O)nc3)ccnc2cc1OCCCN1CCOCC1 [Example 56]", "pIC50": 8.22}
{"Compound": "CCOc1ccc2c(Oc3ccc(NC(=O)c4cn(C(C)C)cc(-c5ccc(F)cc5)c4=O)nc3)ccnc2c1 [Example 52]", "pIC50": 7.96}
